Test System: Integrin alpha-V/beta-3 (Homo sapiens, UniProt P05106+P06756)
Sequence (P05106 27-788 limits assumed): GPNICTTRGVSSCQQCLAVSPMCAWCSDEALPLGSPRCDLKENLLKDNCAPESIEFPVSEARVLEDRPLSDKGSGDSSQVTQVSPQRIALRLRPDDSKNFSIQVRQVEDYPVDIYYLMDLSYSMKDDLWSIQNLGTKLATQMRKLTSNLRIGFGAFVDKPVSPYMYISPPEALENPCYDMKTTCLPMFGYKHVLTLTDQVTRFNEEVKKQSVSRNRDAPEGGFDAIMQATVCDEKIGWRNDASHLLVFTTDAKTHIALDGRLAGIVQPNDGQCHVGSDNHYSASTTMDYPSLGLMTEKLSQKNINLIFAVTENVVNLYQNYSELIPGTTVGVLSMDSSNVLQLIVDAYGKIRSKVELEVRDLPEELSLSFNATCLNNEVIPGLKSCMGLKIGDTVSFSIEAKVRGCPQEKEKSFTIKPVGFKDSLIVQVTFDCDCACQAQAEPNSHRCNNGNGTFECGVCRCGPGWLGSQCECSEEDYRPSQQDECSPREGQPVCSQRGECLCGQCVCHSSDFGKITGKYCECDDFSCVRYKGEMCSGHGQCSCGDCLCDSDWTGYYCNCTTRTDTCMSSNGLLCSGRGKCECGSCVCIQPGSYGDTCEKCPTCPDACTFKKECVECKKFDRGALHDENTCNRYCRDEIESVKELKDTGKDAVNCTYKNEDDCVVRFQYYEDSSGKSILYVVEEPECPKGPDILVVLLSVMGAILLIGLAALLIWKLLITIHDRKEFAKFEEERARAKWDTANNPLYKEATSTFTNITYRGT
Sequence (P06756 31-889 limits assumed): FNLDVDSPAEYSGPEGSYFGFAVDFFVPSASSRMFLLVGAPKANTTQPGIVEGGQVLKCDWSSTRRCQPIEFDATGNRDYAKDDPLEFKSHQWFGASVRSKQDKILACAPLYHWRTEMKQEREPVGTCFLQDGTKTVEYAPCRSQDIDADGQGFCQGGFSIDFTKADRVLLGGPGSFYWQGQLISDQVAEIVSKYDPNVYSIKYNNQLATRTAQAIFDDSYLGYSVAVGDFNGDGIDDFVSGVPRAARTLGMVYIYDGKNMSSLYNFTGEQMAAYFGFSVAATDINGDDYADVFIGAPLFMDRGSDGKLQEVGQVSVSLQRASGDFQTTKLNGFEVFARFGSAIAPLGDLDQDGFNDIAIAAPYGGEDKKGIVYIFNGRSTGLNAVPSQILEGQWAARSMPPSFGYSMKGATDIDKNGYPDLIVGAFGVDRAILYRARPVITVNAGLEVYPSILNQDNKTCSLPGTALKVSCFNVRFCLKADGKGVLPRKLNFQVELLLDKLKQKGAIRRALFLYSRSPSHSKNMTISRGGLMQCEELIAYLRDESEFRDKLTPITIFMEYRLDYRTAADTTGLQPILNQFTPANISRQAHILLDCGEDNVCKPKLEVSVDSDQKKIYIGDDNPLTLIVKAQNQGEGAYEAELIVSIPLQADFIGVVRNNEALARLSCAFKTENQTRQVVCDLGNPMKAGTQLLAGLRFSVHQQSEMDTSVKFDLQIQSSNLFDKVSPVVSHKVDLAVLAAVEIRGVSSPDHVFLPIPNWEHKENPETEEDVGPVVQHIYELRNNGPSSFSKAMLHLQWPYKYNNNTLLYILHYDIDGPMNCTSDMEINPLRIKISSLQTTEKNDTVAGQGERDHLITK
Sequence (P06756 891-1048 limits assumed): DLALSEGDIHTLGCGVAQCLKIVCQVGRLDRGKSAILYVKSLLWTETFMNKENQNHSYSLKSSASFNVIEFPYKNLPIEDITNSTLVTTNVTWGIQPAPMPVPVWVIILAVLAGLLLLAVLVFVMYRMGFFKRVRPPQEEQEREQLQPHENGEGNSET
Assay Explanation: Inhibition of integrin alphavbeta3 (unknown origin) by fluorescence polarization assay
Observed Property: IC50 (nM)

{"Smiles Representation": "O=C(O)C[C@H](C(=O)N1CC[C@@H](CCc2ccc3c(n2)NCCC3)C1)c1cccc(N2CCOCC2)c1", "Observed Property": "IC50", "Unit Spec": "nM", "Observed Value": 2000}
{"Smiles Representation": "O=C(O)C[C@H](C(=O)N1CC[C@@H](CCc2ccc3c(n2)NCCC3)C1)c1cccc(C2CCCC2)c1", "Observed Property": "IC50", "Unit Spec": "nM", "Observed Value": 2510}
{"Smiles Representation": "Cc1cccc([C@H](CC(=O)O)C(=O)N2CC[C@@H](CCc3ccc4c(n3)NCCC4)C2)c1", "Observed Property": "IC50", "Unit Spec": "nM", "Observed Value": 1580}
{"Smiles Representation": "O=C(O)C[C@H](C(=O)N1CC[C@@H](CCc2ccc3c(n2)NCCC3)C1)c1cc(Br)cs1", "Observed Property": "IC50", "Unit Spec": "nM", "Observed Value": 316}
{"Smiles Representation": "O=C(O)C[C@H](C(=O)N1CC[C@@H](CCc2ccc3c(n2)NCCC3)C1)c1cccc(-c2ccccc2)c1", "Observed Property": "IC50", "Unit Spec": "nM", "Observed Value": 2000}
